Below, each entry is listed alongside its reported DC50.
- testedOn: IRAK4 (Homo sapiens, UniProt Q9NWZ3)
- Construct: Degradation of IRAK4 in OCI-LY10 was quantitatively measured using Meso Scale Discovery technology; endogenous in cells; host or cells: OCI-LY10
- Sequence (Q9NWZ3 whole entry): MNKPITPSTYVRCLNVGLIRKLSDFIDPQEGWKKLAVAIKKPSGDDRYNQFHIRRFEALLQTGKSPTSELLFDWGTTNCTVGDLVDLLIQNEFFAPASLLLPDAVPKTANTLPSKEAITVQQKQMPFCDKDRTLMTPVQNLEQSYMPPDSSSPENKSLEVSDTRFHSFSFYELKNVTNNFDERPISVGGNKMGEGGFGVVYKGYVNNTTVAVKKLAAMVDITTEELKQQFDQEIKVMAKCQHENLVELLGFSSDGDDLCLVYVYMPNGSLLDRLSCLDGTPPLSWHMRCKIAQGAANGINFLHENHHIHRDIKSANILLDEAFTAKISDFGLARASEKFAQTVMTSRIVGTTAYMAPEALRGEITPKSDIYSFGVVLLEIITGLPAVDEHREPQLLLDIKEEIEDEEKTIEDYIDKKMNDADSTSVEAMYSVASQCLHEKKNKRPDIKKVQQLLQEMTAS
- testSummary: IRAK4 MSD Degradation in OCI-LY10
- Assay type: cell-based
- testConditions: OCI-LY10 cells, 24 hrs incubation, MSD; read-out: IRAK4 degradation in OCI-LY10 at 24 hrs: DC50
- Description: Degradation of IRAK4 in OCI-LY10 was quantitatively measured using Meso Scale Discovery technology. […] Compounds were then added to the assay plates with a final top concentration of 1 to 10 μM in a 1:3 dilution series with total of 8 doses. […] The assay plates were then incubated at room temperature for 1 hour, washed 3 times with 150 μL/well TBST buffer, and 150 μL/well MSD reading buffer (Meso Scale Discovery catalog number R92TC-2) was added. […]

Known DC50 results, listed for orientation:
Give its DC50 value. Item: Cn1c(=O)n(C2CCC(=O)NC2=O)c2cccc(C3CCN(C[C@H]4CC[C@H](n5cc6cc(NC(=O)c7cnn8ccc(N9C[C@H]%10C[C@@H]9CO%10)nc78)ccc6n5)CC4)CC3(F)F)c21 (stereo partly shown)
< 10 nM

Give its DC50 value. Item: Cn1c(=O)n(C2CCC(=O)NC2=O)c2cccc(N3CC(C4CCN([C@H]5CC[C@H](n6cc(NC(=O)c7cnn8ccc(N9C[C@H]%10C[C@@H]9CO%10)nc78)c(C(F)F)n6)CC5)CC4(F)F)C3)c21 (stereo partly shown)
> 200 nM

Consider the additional compound presented here.
Give its DC50 value. Item: CN(C[C@H]1CC[C@H](n2cc(NC(=O)c3cnn4ccc(C5COC5)nc34)c(C(F)F)n2)CC1)C1CCN(c2cccc3c2n(C)c(=O)n3C2CCC(=O)NC2=O)CC1 (stereo partly shown)
> 200 nM

###

- testedOn: IRAK4 (Homo sapiens, UniProt Q9NWZ3)
- Construct: Degradation of IRAK4 in OCI-LY10 was quantitatively measured using Meso Scale Discovery technology; endogenous in cells; host or cells: OCI-LY10
- testSummary: IRAK4 MSD Degradation in OCI-LY10
- Format: cell-based
- testConditions: OCI-LY10 cells, 24 hrs incubation, MSD; read-out: IRAK4 degradation in OCI-LY10 at 24 hrs: DC50
observable: DC50

Lab request: please report DC50 under test system IRAK4 (Homo sapiens, UniProt Q9NWZ3) for COc1cc2nn([C@H]3CC[C@H](CN4CC=C(c5ccc6c(c5)n(C)c(=O)n6C5CCC(=O)NC5=O)C(F)(F)C4)CC3)cc2cc1NC(=O)c1cccc(C(F)(F)F)n1 (some centres unmarked) [I-704]
10 to 100 nM

Lab request: please report DC50 under test system IRAK4 (Homo sapiens, UniProt Q9NWZ3) for Cn1c(=O)n(C2CCC(=O)NC2=O)c2cccc(C3=CCN(C[C@H]4CC[C@H](n5cc6cc(NC(=O)c7cccc(C(F)(F)F)n7)c(C(F)F)cc6n5)CC4)CC3F)c21 (some centres unmarked) [I-459]
> 200 nM

Lab request: please report DC50 under test system IRAK4 (Homo sapiens, UniProt Q9NWZ3) for CN(C)c1cnc2c(C(=O)Nc3cn([C@H]4CC[C@H](CN5CCN(CC#Cc6cccc7c6n(C)c(=O)n7C6CCC(=O)NC6=O)CC5)CC4)nc3C(F)F)cnn2c1 (some centres unmarked) [I-234]
100 to 200 nM

Lab request: please report DC50 under test system IRAK4 (Homo sapiens, UniProt Q9NWZ3) for Cn1c(=O)n(C2CCC(=O)NC2=O)c2cccc(N3CCC4(CCN(C[C@H]5CC[C@H](n6cc(NC(=O)c7cnn8cccnc78)c(C(F)F)n6)CC5)CC4)CC3)c21 (some centres unmarked) [I-236]
< 10 nM

Continuing:
Lab request: please report DC50 under test system IRAK4 (Homo sapiens, UniProt Q9NWZ3) for COc1cc2nn([C@H]3CC[C@H](CN4CCC(c5ccc6c(c5)n(C)c(=O)n6C5CCC(=O)NC5=O)C(F)(F)C4)CC3)cc2cc1NC(=O)c1cccc(C(F)(F)F)n1 (some centres unmarked) [I-463]
> 200 nM
